growth reference
# Tested on: OVCAR-4 ovarian
# run-description: NCI-60 one-dose screen, 48 h (100 = growth as untreated, 0 = no growth, -100 = all killed)
# study-conditions: 10 µM unless noted
This is part of a sample that, as a whole, favours compounds with a hit. Of some 83,000 tested, about 20% had one in any assay.
property-name: growth (%)

> print(dat)
                                   compound  unit.string  endpoint.result
1  COc1cc2c(c(OC)c1OC)C(=O)CC(c1cccc(NC(=O)c3ccc(Br)cc3)c1)O2 (stereo not drawn)            %             53.9
2  CC1(C)CCC(S(=O)(=O)c2ccc3c(c2)/C(=N\O)c2cc(S(=O)(=O)N4CCC(O)(c5cccc(C(F)(F)F)c5)CC4)ccc2-3)CC1            %            -92.6
3  CC1(C)c2[nH]c3ccccc3c2C[C@]2(C)[C@H]3CC=C4[C@@H]5C[C@@](C)(C(N)=O)CC[C@]5(C)CC[C@@]4(C)[C@]3(C)CC[C@@H]12            %             32.4
4  COc1cc(CNC(=O)CCCC/C=C/C(C)C)ccc1OCc1nnc(Nc2ccc([N+](=O)[O-])cc2)o1            %             11.3
5  CC1=C(CCC(C)N(C)Cc2ccc(OCCCN3CCCC3)cc2)C(C)(C)CCC1 (stereo not drawn)            %             60.2
6  CN(C)C1CCN(Cc2ccc(NC(=O)c3cncc(C#Cc4cnc(N)c5ncccc45)c3)cc2C(F)(F)F)CC1            %            -14.7
7  N#CC1CCc2c(c(-c3cn[nH]c3C(F)(F)F)nc3c(F)cc4[nH]ncc4c23)C1 (stereo not drawn)            %             59.7
8  CSc1nnc(-c2cnn3c2NC(c2ccccc2)C3)n1-c1ccc(C(F)(F)F)cc1 (stereo not drawn)            %             59.1
